Data credit: ChEMBL document CHEMBL1127768

organism: Mus musculus; test: Observed biological activity converted into logit model against Ehrlich ascites carcinoma in mice; type: functional
Each entry below carries its reported logit activity.
Format: numeric value only, no unit, no commentary.

>  <compound>
NNC(=O)C1CCC(=O)N1S(=O)(=O)c1ccc(Cl)cc1 (stereo not drawn)

>  <logit activity>
1.25

$$$$
>  <compound>
NNC(=O)C1CCC(=O)N1S(=O)(=O)c1ccc(Cl)c(Cl)c1 (stereo not drawn)

>  <logit activity>
1.03

$$$$
>  <compound>
NNC(=O)C1CCC(=O)N1S(=O)(=O)c1ccccc1 (stereo not drawn)

>  <logit activity>
-0.549

$$$$

Proceed to the following item.
Q: Give the reported logit activity for this compound. O=C(NNc1ccccc1)C1CCC(=O)N1S(=O)(=O)c1ccc(Cl)c(Cl)c1 (stereo not drawn)
Ans: 1.16

====

species: Mus musculus; assay: Observed biological activity converted into logit model against Ehrlich ascites carcinoma in mice; format: functional
Item-by-item account of logit activity
Lab note: write the figure by itself, no unit.

>  <molecule>
Cc1ccc(S(=O)(=O)N2C(=O)CCC2C(=O)NN)cc1 (centres undefined)

>  <endpoint_value>
0.61

$$$$
>  <molecule>
Cc1ccc(S(=O)(=O)N2C(=O)CCC2C(=O)NNc2ccccc2)cc1 (centres undefined)

>  <endpoint_value>
1.89

$$$$
>  <molecule>
O=C(NNc1ccccc1)C1CCC(=O)N1S(=O)(=O)c1ccc(Cl)cc1 (centres undefined)

>  <endpoint_value>
3.13

$$$$

Would you kindly look at the next entry?
Q: Please report logit activity for the following molecule: O=C(NNc1ccccc1)C1CCC(=O)N1S(=O)(=O)c1ccccc1 (centres undefined)
Ans: 5.59
